assay comment: growth suppression of PTEN-deleted HCT116, pilot screen, cell-based, HCT116 clonal line, CellTiter-Glo (AID 824);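 also: 0% = 20 µM Hyamine control and 100% = vehicle cell control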
assay conditions: 60 h, at 10 µM, hits give low values
Inconclusive results are not listed.
Kindly supply the reported viability values for the records listed here.
Supply the numeric figure in %, leaving out any unit text.

For the compound Cc1cccc(-c2nc(CS(=O)CC(=O)N3CCCCC3)c(C)o2)c1 (stereo unspecified) , what viability is on record?
92.3

Returns the measured viability for the input compound. Input: `CN(C)S(=O)(=O)c1ccc(C(=O)Nc2nc(-c3cccs3)cs2)cc1`
20

For `Cc1noc(C(=O)Nc2c(C)nn(Cc3ccccc3)c2C)c1Cl` , what is its reported viability?
88.7

# query: viability of entry `CCOC(=O)c1sc(NC(=O)c2ccc3ncsc3c2)nc1C`
82.8

Look up viability for this compound: Cc1ccc(C(=O)CSC2=NC(N)=C(C#N)C3(CCCCC3)C2C(N)=O)cc1 (stereo unspecified)
97.6

Requested read-out: viability. Entry: O=C(NCCCN1CCOCC1)C1CCC(=O)N1CCc1ccccc1 (stereo unspecified)
96.7

* * *

assay comment: inhibitors of the yeast RAM network, pilot screen, dse1pr::URA3 reporter, 5-FOA selection (AID 869);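 also: 0% = DMSO wells with no growth and 100% = 10 µM 1-NA-PP1 with full growth; RAM network block rescues cells from 5-FOA so hits raise OD615 growth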
assay conditions: S. cerevisiae dse1pr::URA3 5-FOA growth, OD615, 2 d; at 10 µM; hits give high values; strain carries analog-sensitive mutant Cbk1 kinase
I'd appreciate it if you could supply inhibition values for the items below.
Respond with the bare value in %.

Which inhibition value is on record for `Cc1cc(C)nc(NS(=O)(=O)c2ccc(NC(=O)CCCN3C(=O)c4ccccc4C3=O)cc2)n1` ?
0.735

Which inhibition value belongs to CCN1CCCC(NC(=O)c2scc3c2CCCC3)C1 (stereo unspecified) ?
0.625

Fill in: inhibition of `FC(F)C(F)(F)C1=CC(c2ccccc2)=NCCN1` is ___
1.59

Can you look up the measured inhibition of `CCCS(=O)(=O)c1nc(S(=O)(=O)c2ccc(C)cc2)c(N2CCCC2)s1` for me?
4.48

What value of inhibition has been recorded for this entry: `COc1ccc(-c2nnc(SCC(=O)N3CCN(c4ccccc4)CC3)o2)cc1OC`
1.64

Quick one: inhibition of `Cn1c2ccc(Cl)cc2c2nc3ccccc3nc21` ?
7.62

Fill in: inhibition of `O=C(c1ccc(CS(=O)(=O)c2ccccc2)o1)N1CCOCC1` is ___
1.19

Returns the measured inhibition for the input compound. Input: `CCc1ccc2nc(NC3=NCN(CCOC)CN3)nc(C)c2c1`
1.18

Entry `Cn1cccc1Cc1nnc(SCC(=O)N2CCCCCC2)n1CCc1ccccc1` : reported inhibition = ?
2.48

Fill in the blank: the reported inhibition of `O=C(c1ccccc1)N1CCn2c(nc3ccccc32)C1` is ____.
0.5

# inhibition lookup, item `O=C(Nc1ccccc1)c1ccccc1O`
-0.42

* * *

assay comment: growth suppression of beta-catenin knockout HCT116, pilot screen, human colon tumor cells (AID 823);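 also: 0% = wells killed by 20 µM Hyamine and 100% = untreated DMSO cell wells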
assay conditions: CellTiter-Glo, 60 h, at 10 µM, hits give low values
Inconclusive results are not listed. Active and inactive are the calls of the source.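 How the source made its calls: active means cell viability at or below a set limit in both duplicate runs, the limit being the all-compound median minus 4 SD (cut at about 23% in these data, passing the limit was not always enough); inconclusive means no clear call, values can overlap the other calls; inactive means the rest.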
Task for the reader: assign each of the following compounds its reported viability.

If you can, please state the reported viability value of `O=C(NCCn1cc(SCC(=O)N2CCOCC2)c2ccccc21)c1ccccc1` .
97% (inactive)

Look up viability: `Cn1c2ccc(CC(=O)O)cc2c2cc(CC(=O)O)ccc21`
96.8% (inactive)

Return reported viability; argument: `Cc1cnc(NC(=O)c2ccc(-c3nc4ccccc4s3)o2)s1`
98.1% (inactive)

Any idea what its viability is? The compound is CCOC(=O)C1CCN(C(=O)c2ccc(Cl)c(NC3=NC4CS(=O)(=O)CC4S3)c2)CC1 (stereo unspecified)
107% (inactive)

Any idea what viability was measured for CCOCCCNC(=O)C(NC(=O)c1cnccn1)c1ccc(OC)cc1 (stereo unspecified) ?
102% (inactive)

Look up viability for this compound: `O=C(NCc1cn2ccccc2n1)c1ccc(Br)o1`
96.5% (inactive)

Item `CCn1c(N2CCC(C)CC2)nc2c1c(=O)n(C)c(=O)n2C` has what recorded viability?
92.9% (inactive)

State the recorded viability for this entry: `O=C(c1cc2c(ccc3ccccc32)oc1=O)N1CCN(CCO)CC1`
88.8% (inactive)

// viability lookup, key: `NC(=O)c1sc(=S)n(-c2ccc(Br)cc2)c1N`
97.7% (inactive)

Give the measured viability of `Brc1ccc(OCCOCCN2CCOCC2)cc1` .
91.7% (inactive)

// returns reported viability for input `Cc1ccc(Cn2nnc3c(=O)n(CC(=O)c4ccccc4)cnc32)cc1`
96.7% (inactive)

* * *

assay comment: inhibitors of the yeast RAM network, pilot screen, dse1pr::URA3 reporter, 5-FOA selection (AID 869);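 also: 0% = DMSO wells with no growth and 100% = 10 µM 1-NA-PP1 with full growth; RAM network block rescues cells from 5-FOA so hits raise OD615 growth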
assay conditions: S. cerevisiae dse1pr::URA3 5-FOA growth, OD615, 2 d; at 10 µM; hits give high values; strain carries analog-sensitive mutant Cbk1 kinase
# inhibition >= 0.7% gives t, anything below gives f

Check the entry CCC(C)NC(=O)C1CCC(=O)N(c2ccc3c(c2)OCO3)C1c1ccc(OC)cc1 (stereo unspecified) : does inhibition equal or exceed 0.7%?
t

Please tell me: is the compound CCSCCOC(=O)C1=C(C)NC(=O)NC1c1cc(OC)ccc1OC (stereo unspecified) at or over 0.7% in terms of inhibition?
t

Hello, I need to know if `CC(=O)NCC(=O)N(c1ccccc1)C1(C(=O)NC2CCCCC2)CCCCC1` has measured inhibition not below 0.7%. Thanks!
f

I'd appreciate it if you could say whether `Cc1cnc(NC(=O)c2ccc(-c3nc4ccccc4s3)o2)s1` has inhibition at least equal to 0.7%.
f

// inclusive: inhibition at least 0.7%? input: `Cc1ccc(NC(=O)CSc2nnc(Cc3cccn3C)n2-c2ccc(F)cc2)c(C)c1`
t

Confirm if inhibition reported for the compound CCCCOc1ccccc1NC(=O)CC1SC(=NCC)N(CC)C1=O (stereo unspecified) is 0.7% or above.
t

For this compound, is measured inhibition 0.7% or higher? `Cc1cccc(NC(=O)CN2CCN(CC(=O)Nc3cccc(C)c3)CC2)c1`
f

Assess whether reported inhibition for CCOC(=O)Cn1c(=O)oc2cc(S(=O)(=O)NCC3CCCO3)ccc21 (stereo unspecified) sits at 0.7% or higher.
f

Please tell me: is the compound `Cc1ccccc1OCC(=O)Nc1ccccc1N1CCOCC1` at or over 0.7% in terms of inhibition?
t

Hi team, for `CCOc1ccccc1N1CCN(S(=O)(=O)CC)CC1` , is the recorded inhibition at or above 0.7%?
f

Dear colleague, could you confirm whether CN(C)c1ccc(C2C3C(=O)NC(=O)C3ON2c2ccc(Cl)cc2)cc1 (stereo unspecified) has inhibition at or above 0.7%?
t

Tell me whether inhibition is at least 0.7% here: `COc1ccc(C)cc1NC(=O)c1ccoc1C`
f

Hello, I need to know if `CCOC(=O)c1nn(-c2ccccc2)c(=O)c2c(N)scc12` has measured inhibition not below 0.7%. Thanks!
t

In plain terms: is recorded inhibition at least 0.7% for CC(c1ccccc1F)n1cc(C(=O)NCc2ccncc2)nn1 (stereo unspecified) ?
t

Hi, just wondering whether `COc1ccc(S(=O)(=O)N2CCC(C(=O)N3CCc4ccccc4C3)CC2)cc1` shows inhibition of 0.7% or higher.
f

Can `O=C(NCCN1CCOCC1)NC1(C(F)(F)F)Oc2ccccc2O1` be said to have inhibition at or above 0.7%?
f

Say whether CCOCCCNC(=O)C(NC(=O)CC1NC(=O)NC1=O)c1ccc(Cl)cc1 (stereo unspecified) shows inhibition of 0.7% or more.
t

Does the reported inhibition for CCC(C)Sc1nnc(Cc2cc(=O)[nH]c(=O)[nH]2)n1-c1ccc(F)cc1 (stereo unspecified) fall at or above the 0.7% mark?
f

Please tell me: is the compound `CCc1nc2oc(C(=O)c3ccccc3)c(N)c2c2c1COC(C)(C)C2` at or over 0.7% in terms of inhibition?
t

Is inhibition for `O=C1CCCc2sccc2N1` at or above 0.7%?
f

Check if inhibition >= 0.7% (inclusive). Item: CC(=O)C1=C(C)NC(=O)NC1c1ccccc1 (stereo unspecified)
t

Kindly determine if inhibition recorded for `C=C(C)CSc1nnc(-c2cccc(Cl)c2)n1N` is above or exactly 0.7%.
t

Kindly determine if inhibition recorded for COC(=O)C1CCN(C(c2cc(OC)c(OC)c(OC)c2)c2sc3nc(C)nn3c2O)CC1 (stereo unspecified) is above or exactly 0.7%.
t

Does the reported inhibition for Cc1c(C)n(CC(O)CN2CCCCCC2)c2ccccc12 (stereo unspecified) fall at or above the 0.7% mark?
t

Exam item: decide whether the reported inhibition for `Cc1cccc(OCCn2c(=O)n(C)c3ccccc32)c1` is at least 0.7%.
t

Does inhibition meet or surpass 0.7% for `Cc1noc(C)c1S(=O)(=O)N(CC(=O)NCc1ccc(Cl)cc1)c1ccc2c(c1)OCO2` ?
t

Determine whether measured inhibition meets or exceeds 0.7% for `COc1ccc(-n2c(=O)c3ccccc3n(CC(=O)NC3CCCC3)c2=O)c(OC)c1`
t

Record `COc1ccc(OCC(=O)Nc2cccc(C(C)=O)c2)cc1` ; criterion: inhibition no lower than 0.7%. Met?
t

Check the entry `O=C(Cn1ncc2c1-c1ccccc1OC2)Nc1nc2ccccc2s1` : does inhibition equal or exceed 0.7%?
t

Form field: inhibition at least 0.7%? Entry: `CCOC(=O)NC(Nc1nnc(SCC)s1)(C(F)(F)F)C(F)(F)F`
t

Is inhibition for `O=C(COc1ccccc1)Nc1ccc(S(=O)(=O)N2CCCC2)cc1` at or above 0.7%?
t

Decide: is the reported value of inhibition for COc1ccc(N2C(=O)C3CCCN3C2c2cccc(OC)c2)cc1 (stereo unspecified) equal to or greater than 0.7%?
t

hey, is inhibition for this one >= 0.7%? COc1ccc(C2CC(C(F)(F)F)n3ncc(C(=O)O)c3N2)cc1OC (stereo unspecified)
f

Textbook exercise: given the entry `c1ccc(Cn2ncc3c(N4CCCCC4)ncnc32)cc1` , state whether its inhibition is greater than or equal to 0.7%.
f

Confirm if inhibition reported for the compound Cc1nc2sc(C(c3ccc(Cl)cc3)N3CCN(CCO)CC3)c(O)n2n1 (stereo unspecified) is 0.7% or above.
t

Hi, just wondering whether `Cc1ccccc1NC(=O)CSc1[nH]c(=O)cc(C)c1C#N` shows inhibition of 0.7% or higher.
t

Entry `Cn1c(=O)c2c(nc(N3CCN(Cc4ccccc4)CC3)n2CCSc2ncccn2)n(C)c1=O` : is its inhibition no less than 0.7%?
t

Can COc1ccc(C2C(C(=O)Nc3cccc(C)n3)c3ccccc3C(=O)N2C)cc1 (stereo unspecified) be said to have inhibition at or above 0.7%?
t

State whether the measured inhibition reaches 0.7%, counting equality as reaching it, for `CCOc1ccc(Nc2ncnc3c2cnn3-c2ccccc2)cc1`
t

Kindly determine if inhibition recorded for `Cn1cnnc1SCc1ccc(C#N)cc1Cl` is above or exactly 0.7%.
f

Threshold query (inhibition >= 0.7%) on `COc1ccc(-n2c(Cn3c(=O)sc4ccccc43)nnc2SCC(N)=O)cc1`
t

API: above_or_equal(metric=inhibition, cutoff=0.7%) for item NC(=O)c1cc(N2C(=O)C3CC=CCC3C2=O)ccc1N1CCCCC1 (stereo unspecified)
t

Identify whether the reported inhibition of the following compound is 0.7% or greater: `O=C(O)CN1C(=O)COc2cc(S(=O)(=O)N3CCCC3)ccc21`
f

Identify whether the reported inhibition of the following compound is 0.7% or greater: CCOc1ccc(C2c3c(oc4ccccc4c3=O)C(=O)N2CCCN2CCOCC2)cc1OCC (stereo unspecified)
f

Dear colleague, could you confirm whether CCOC(=O)N1CCC(NC(=O)c2ccc(NC(=O)C3CCCO3)cc2)CC1 (stereo unspecified) has inhibition at or above 0.7%?
t

This collection of values is drawn from PubChem BioAssay.
